# assay: recombinant barcode read abundance after kanamycin selection (control-corrected) (log10(CPM+1)); higher = more efficient recombination; sequences stand for … in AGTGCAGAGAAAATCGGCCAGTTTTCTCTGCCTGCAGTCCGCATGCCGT…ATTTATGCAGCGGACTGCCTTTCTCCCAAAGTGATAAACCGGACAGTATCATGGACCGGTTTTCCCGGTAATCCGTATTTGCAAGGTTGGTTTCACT; site = the 11-nt target
valueType: recombinant barcode read abundance (log10)
Simply state the number, no unit and no words.

Recorded recombinant barcode read abundance (log10), per entry:
TGATACCCCTGGGTTCTAACCTGTTGCGTGG [TGATACCCTAC_LTGcore_CC_RTGcore_CC] (site TGATACCCTAC) (LTG core: CC, RTG core: CC)	0.351
CGAGCCCCTTGGGTTCTAACCTGTTGCTGTA [CGAGCCCCTCA_LTGcore_CT_RTGcore_TA] (site CGAGCCCCTCA) (LTG core: CT, RTG core: TA)	0.68
AGTCTTACTTGGGTTCTAACCTGTTGCCAGT [AGTCTTACTTG_LTGcore_CT_RTGcore_AC] (site AGTCTTACTTG) (LTG core: CT, RTG core: AC)	0.0396
ATGCTTTCTTGGGTTCTAACCTGTTGCCTTT [ATGCTTTCTAG_LTGcore_CT_RTGcore_AA] (site ATGCTTTCTAG) (LTG core: CT, RTG core: AA)	0.103

# input for lookup
Note to self: recombinant barcode read abundance (log10) recorded for GGACACCTATGGGTTCTAACCTGTTGCCTTA [GGACACCCTAG_LTGcore_TA_RTGcore_TA] (site GGACACCCTAG) (LTG core: TA, RTG core: TA) was 0

---

# assay: recombinant barcode read abundance after kanamycin selection (control-corrected) (log10(CPM+1)); higher = more efficient recombination; sequences stand for … in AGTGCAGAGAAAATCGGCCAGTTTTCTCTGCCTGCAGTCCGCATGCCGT…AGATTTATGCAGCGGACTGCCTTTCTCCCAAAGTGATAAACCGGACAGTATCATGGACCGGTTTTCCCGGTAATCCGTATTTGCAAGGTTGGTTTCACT; site = the 11-nt target
Listed below: recombinant barcode read abundance (log10) values for each entry.

CGTCACCCTTGGGTTCTAACCTGTTGCCT (site CGTCAACCTAG)	0.0616
ATCACTACTTGGGTTCTAACCTGTTGCCT (site ATCACTACTAG)	0.207
TGTTGAGCTTGGGTTCTAACCTGTTGCCG (site TGTGGAGCTCG)	0.258
CTCTCGGCTTGGGTTCTAACCTGTTGCCT (site CTCTAGGCTAG)	0.494
ACGCACGCTTGGGTTCTAACCTGTTGCGG (site ACACACCCTCC)	0.0809
ATCGGAACTTGGGTTCTAACCTGTTGCCT (site ATCGGAGCTAG)	0.13
GAAGGCGCTTGGGTTCTAACCTGTTGCCT (site GAAGTCGCTAG)	0.0553
TCTATCCCTTGGGTTCTAACCTGTTGCCT (site TCTATCCCTAG)	0.203
CAGGAACCTTGGGTTCTAACCTGTTGCCT (site AAGGAACCTAG)	0.15

// next item, recombinant barcode read abundance (log10) requested
Reported recombinant barcode read abundance (log10) for GGCGTAGCTTGGGTTCTAACCTGTTGCCT (site GGCGTAGCTAG) was 2.37

---

# assay: recombinant UMI read abundance after kanamycin selection (control-corrected) (log10(CPM+1)); higher = more efficient recombination; extreme values may be limits of the assay; sequences stand for … in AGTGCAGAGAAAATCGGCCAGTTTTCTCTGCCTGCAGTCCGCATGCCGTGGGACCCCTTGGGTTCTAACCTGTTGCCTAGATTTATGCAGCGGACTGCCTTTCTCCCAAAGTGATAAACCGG…AGGTTGGTTTCACT; site = the 11-nt donor
valueType: recombinant UMI read abundance (log10)
Give your answer as a number; write no unit.

Answered examples (3):
CAAGTCGCATGGACCGGTTTTCCCGGTAATCCGTATTTGGG (site CAAGTCACTCC)	0.0586
GGAGATTCATGGACCGGTTTTCCCGGTAATCCGTATTTGAC (site GGAGATTCTGT)	0
GACGAACCATGGACCGGTTTTCCCGGTAATCCGTATTTGGT (site GACCAACCTAC)	0.0777

Input CAAGTCGCATGGACCGGTTTTCCCGGTAATCCGTATTTGGG (site CAAGTCTCTCC) . Output recombinant UMI read abundance (log10): 1.46

The measured recombinant UMI read abundance (log10) associated with CACGGCTCATGGACCGGTTTTCCCGGTAATCCGTATTTGCC (site CACGGCTCTGG) reads 3.3

The recorded recombinant UMI read abundance (log10) for TACTTGACATGGACCGGTTTTCCCGGTAATCCGTATTTGCC (site TACTTGACTGG) is 0

Record TATGAATCATGGACCGGTTTTCCCGGTAATCCGTATTTGCG (site TACGAATCTCG) . Reported recombinant UMI read abundance (log10): 2.23

get_value(item= TCATACCCATGGACCGGTTTTCCCGGTAATCCGTATTTGCA (site TCATACTCTTG) , readout=recombinant UMI read abundance (log10)) returns 0.995

response.value for AAGCACACATGGACCGGTTTTCCCGGTAATCCGTATTTGTT (site AAGCACACTAA) (field: recombinant UMI read abundance (log10)) = 1.8

---

Listing of entries alongside the reported recombinant barcode read abundance (log10).
# assay: recombinant barcode read abundance after kanamycin selection (control-corrected) (log10(CPM+1)); higher = more efficient recombination; sequences stand for … in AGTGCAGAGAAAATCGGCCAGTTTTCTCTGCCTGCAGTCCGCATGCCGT…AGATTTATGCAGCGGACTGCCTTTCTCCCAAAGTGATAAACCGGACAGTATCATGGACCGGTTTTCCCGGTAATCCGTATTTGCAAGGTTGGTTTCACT; site = the 11-nt target
Respond numerically, and do not add a unit to the figure.

A selection of reference data follows.
GCGGGTCCTTGGGTTCTAACCTGTTGCCT (site GCCGGTCCTAG)	0.213
ATCCGCTCTTGGGTTCTAACCTGTTGCCT (site ATCCGCTCTAG)	2.06
GCGATGTCTTGGGTTCTAACCTGTTGCCT (site GTGATGTCTAG)	0.116
GACGGATCTTGGGTTCTAACCTGTTGCGT (site GACGGATCTAC)	0.705

In the following, a different sequence is considered.
Per the record, GATACAGCTTGGGTTCTAACCTGTTGCCT (site GAGACAGCTAG) has recombinant barcode read abundance (log10) of 0.155

---

# assay: recombinant barcode read abundance after kanamycin selection (control-corrected) (log10(CPM+1)); higher = more efficient recombination; sequences stand for … in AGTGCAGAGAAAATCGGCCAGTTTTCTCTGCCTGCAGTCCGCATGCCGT…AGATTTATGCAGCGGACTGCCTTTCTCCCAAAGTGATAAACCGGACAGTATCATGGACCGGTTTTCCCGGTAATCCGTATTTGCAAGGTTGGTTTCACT; site = the 11-nt target
In this section we review reported recombinant barcode read abundance (log10) values for a set of sequences.
Write the value as a bare number.

Below: 4 sequences and their reported recombinant barcode read abundance (log10).
CGTGGGCCTTGGGTTCTAACCTGTTGCCT (site CTTGGGCCTAG)	0.0694
AGTAAGGCTTGGGTTCTAACCTGTTGCCT (site AGTAAGGCTAG)	0.0834
CTGAGGCCTTGGGTTCTAACCTGTTGCCT (site ATGAGGCCTAG)	0.226
TCACACTCTTGGGTTCTAACCTGTTGCCT (site TCACACTCTAG)	1.59

recombinant barcode read abundance (log10) recorded for this sequence, GAGGAACCTTGGGTTCTAACCTGTTGCCT (site AAGGAACCTAG) , is 1.57

---

# assay: recombinant UMI read abundance after kanamycin selection (control-corrected) (log10(CPM+1)); higher = more efficient recombination; extreme values may be limits of the assay; sequences stand for … in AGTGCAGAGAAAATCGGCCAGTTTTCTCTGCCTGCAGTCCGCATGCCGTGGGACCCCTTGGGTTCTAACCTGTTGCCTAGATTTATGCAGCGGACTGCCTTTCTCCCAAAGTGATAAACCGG…AGGTTGGTTTCACT; site = the 11-nt donor
The label depends only on recombinant UMI read abundance (log10): criterion met if it is at least 1, criterion not met if it is smaller.

Example entries and their recorded answers appear below.
TCACATCCATGGACCGGTTTTCCCGGTAATCCGTATTTGAC (site GCACATCCTGT)	criterion not met
ATCCGTCCATGGACCGGTTTTCCCGGTAATCCGTATTTGAT (site AGCCGTCCTAT)	criterion not met
AGTAAAGCATGGACCGGTTTTCCCGGTAATCCGTATTTGCA (site AGTAAAGCTTG)	criterion met
GCCACTCCATGGACCGGTTTTCCCGGTAATCCGTATTTGTA (site GCCACGCCTTA)	criterion not met
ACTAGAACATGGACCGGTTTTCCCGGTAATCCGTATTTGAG (site ACTAGATCTCT)	criterion met
AGCACGTCATGGACCGGTTTTCCCGGTAATCCGTATTTGAC (site AGCACGTCTGT)	criterion met
CAATGCTCATGGACCGGTTTTCCCGGTAATCCGTATTTGAG (site CAATGCTCTGT)	criterion not met
TTTAATCCATGGACCGGTTTTCCCGGTAATCCGTATTTGAT (site TTTAATCCTAT)	criterion not met
CAAGCACCATGGACCGGTTTTCCCGGTAATCCGTATTTGCT (site CAAGCAGCTAG)	criterion not met
TCACAGACATGGACCGGTTTTCCCGGTAATCCGTATTTGCG (site TCATAGACTCG)	criterion not met

**Q:** Hi team, for CTCTACGCATGGACCGGTTTTCCCGGTAATCCGTATTTGCT (site CTCTACCCTAG) , is the recorded recombinant UMI read abundance (log10) at or above 1?
**A:** criterion not met

**Q:** Is the recorded value of recombinant UMI read abundance (log10) equal to or greater than 1 for this sequence? ATGCTCGCATGGACCGGTTTTCCCGGTAATCCGTATTTGAA (site ATGCTCGCTTT)
**A:** criterion met
